test: Stability of the compound in mouse plasma assessed as half life by LC-MS/MS analysis; type: ADME, cell-free
Measure: half-life

COc1cc2sc3c(c2cc1OC)C(=O)N(CCC(=O)O)C3=O    > 1 h

Input: Using the record for CC[C@H](CNC(=O)c1[se]c2cc(OC)c(OC)cc2c1F)C(=O)O , report its half-life.
Output: > 1 h

###

test: Oral bioavailability in mouse at 10 mg/kg by LC-MS/MS analysis; type: ADME, organism-based; conditions: in vivo
Entries annotated with measured bioavailability
Note to self: number, then unit, no commentary.

COc1cc2cc(C(=O)CCC(=O)O)sc2cc1OC    52%

Here is another compound to look at.
Input: For the compound shown here, CC[C@H](CNC(=O)c1[se]c2cc(OC)c(OC)cc2c1F)C(=O)O , give the reported bioavailability.
Output: 58%
